# Tested on: Plasmodium falciparum
# TEST DESCRIPTION: GSK_TCMDC: Inhibition of Plasmodium falciparum 3D7 in whole red blood cells, using parasite LDH activity as an index of growth. Test compounds present at 2uM
# Format: functional
Field: Inhibition. Provide a value for each of the compounds that follow.
Please give a number only; it is taken to be in %.

Query block: Which value of Inhibition has been reported for Cn1cnc(CCNC(=O)c2cccc(-c3ccc(-c4nc5cc(F)ccc5[nH]4)cc3)c2)c1 in the records?
Result block: 88

Query block: Which value of Inhibition has been reported for CCc1c(CCNCCCCCCNCCc2ccccc2)ccc(OC)c1OC.Cl in the records?
Result block: 100

Query block: Which value of Inhibition has been reported for Cc1ccc2sc(N3CCN(C(=O)c4ccc([N+](=O)[O-])o4)CC3)nc2c1C in the records?
Result block: 90

Query block: Which value of Inhibition has been reported for Cc1cc(Nc2ncc(C#N)c(Nc3ccccc3C(N)=O)n2)ccc1N1CCN(C)CC1.Cl in the records?
Result block: 94

Query block: Which value of Inhibition has been reported for O=C(CCc1cccnc1)Nc1cccc(-c2ccc(-c3nc4cc(C(F)(F)F)ccc4[nH]3)cc2)c1 in the records?
Result block: 93

----------
# System: HepG2
# TEST DESCRIPTION: GSK_TCMDC: Percent inhibition of human HepG2 cell line. Test compounds present at 10uM.
# Format: functional
Field: Inhibition. Provide a value for each of the compounds that follow.

Query block: Which value of Inhibition has been reported for Cc1nc2c(s1)c(=O)cc(CCc1cccc(F)c1F)n2CC(=O)N(Cc1ccc(-c2ccc(C(F)(F)F)cc2)cc1)C1CCN(C(C)C)CC1.O=C(O)C(O)C(O)C(=O)O in the records?
Result block: 98%

Query block: Which value of Inhibition has been reported for Cl.O=S(=O)(Nc1cc2c(cc1OCCCN1CCCCC1)CCNCC2)c1ccc(-c2ccc(Cl)cc2)cc1 in the records?
Result block: 77%

Query block: Which value of Inhibition has been reported for COc1ccc(CNCc2cccc(-c3ccc(-c4nc5ccccc5[nH]4)cc3)c2)cc1.O=C(O)C(F)(F)F in the records?
Result block: 22%

Query block: Which value of Inhibition has been reported for CCCCCCCN1CC[C@@H](CCCc2ccnc3ccc(OC)cc23)[C@@H](CCN)C1.O=C(O)C(=O)O in the records?
Result block: 50%

Query block: Which value of Inhibition has been reported for COc1cc2nc(NCCc3ccccc3)nc(NCc3cc(C)no3)c2cc1OC in the records?
Result block: 5%

Query block: Which value of Inhibition has been reported for O=C1OC(c2ccccc2)(c2ccccc2)CN1C1CCN(Cc2ccc(O)c(Cl)c2)C1 (stereo not drawn) in the records?
Result block: 10%

Query block: Which value of Inhibition has been reported for Cc1c[nH]c2ccc(/C=C/C(=O)NC3CCC(CCN4CCc5ccc(C#N)cc5CC4)CC3)cc12.Cl (stereo not drawn) in the records?
Result block: 9%

Query block: Which value of Inhibition has been reported for O=C(Nc1ccc(Cl)c(Cl)c1)Nc1ccc2c(c1)CCNCC2.O=C(O)C(F)(F)F in the records?
Result block: 13%

Query block: Which value of Inhibition has been reported for O=C(Nc1cccc(F)c1)N1CCC(NS(=O)(=O)c2ccc(Br)cc2)CC1 in the records?
Result block: 4%

Query block: Which value of Inhibition has been reported for Cc1ccc2nc(C)cc(Nc3ccccc3O)c2c1.Cl in the records?
Result block: 0%

Query block: Which value of Inhibition has been reported for Cc1cc(NCCC(=O)Nc2ccccc2)nc(NCCc2ccccc2)n1.O=C(O)C(F)(F)F in the records?
Result block: 0%

Query block: Which value of Inhibition has been reported for CC(C)C1=C[C@H]2C[C@]3(C4OCCO4)[C@@H]4CC[C@@H](C)[C@H]4C[C@@]2(COCc2cccc(C#N)c2)[C@]13C(=O)OC(c1ccccc1)c1ccccc1 in the records?
Result block: 0%

Query block: Which value of Inhibition has been reported for O=C(Nc1cc(Cl)cc(Cl)c1)c1cc(Cl)c(=O)n(Cc2ccc(Cl)cc2)c1 in the records?
Result block: 7%

Query block: Which value of Inhibition has been reported for CCCCCCCN1CCC(NC(=O)Nc2ccnc3ccc(OC)cc23)C(CO)C1.O=C(O)C(=O)O (stereo not drawn) in the records?
Result block: 23%

Query block: Which value of Inhibition has been reported for CN1CCN(Cc2c(O)ccc3c(=O)c(Oc4ccc(C(C)(C)C)cc4)c(C(F)(F)F)oc23)CC1 in the records?
Result block: 0%

Query block: Which value of Inhibition has been reported for Cl.O=C(Nc1cccc2ccccc12)N1CCc2cc3nccc(N4CCN5CCC[C@H]5C4)c3cc21 in the records?
Result block: 11%

Query block: Which value of Inhibition has been reported for NS(=O)(=O)c1cccc(-c2ccc3ncc(N4CCOCC4)nc3c2)c1 in the records?
Result block: 17%

Query block: Which value of Inhibition has been reported for Br.COc1nc(-n2ccc(=N)cc2)nc2ccccc12 in the records?
Result block: 15%

----------
# Tested on: Plasmodium falciparum
# TEST DESCRIPTION: GSK_TCMDC: Inhibition of Plasmodium falciparum Dd2 in whole red blood cells, using parasite LDH activity as an index of growth. Test compounds present at 2uM
# Assay type: functional
Assign yes whenever Inhibition does not fall below 60%; assign no whenever it does.

Query block: Say whether CC(C)C[C@@H](/C=N/N1CC(=O)NC1=O)NC(=O)[C@H](CC(C)C)NC(=O)c1ccc(OCCN2CCOCC2)cc1 shows Inhibition of 60% or more.
Result block: yes

Query block: Say whether COc1cc(Cc2cnc(N)nc2N)ccc1OCc1ccc(NC(C)=O)cc1 shows Inhibition of 60% or more.
Result block: no

Query block: Say whether CC(C)c1cccc(C(C)C)c1NC(=O)NNC(=O)c1ccc(CCN2CCC(c3nc(COCC(F)(F)F)c(-c4ccc(F)cc4)o3)CC2)cc1 shows Inhibition of 60% or more.
Result block: no

Query block: Say whether COc1cc2nccc(Nc3cccc(Oc4ccccc4)c3)c2cc1OC.Cl shows Inhibition of 60% or more.
Result block: yes

Query block: Say whether Cc1cccc2nc(-c3cccc(-c4ccc(NC(=O)C5CCCO5)cc4)c3)[nH]c12 (stereo not drawn) shows Inhibition of 60% or more.
Result block: no

Query block: Say whether COc1ccc(C(=O)N2CCC3(CC2)C(=O)N(CC(=O)NCC2CCCCC2)CN3c2ccccc2)cc1 shows Inhibition of 60% or more.
Result block: yes

Query block: Say whether O=C(Nc1cccc(CN2CCN(Cc3cccc(O)c3)CC2)c1)c1ccc(Cl)c(Cl)c1.O=C(O)C(F)(F)F shows Inhibition of 60% or more.
Result block: no

Query block: Say whether COc1cc2nc(NCCc3ccccc3)nc(N(C)Cc3ccccc3)c2cc1OC shows Inhibition of 60% or more.
Result block: no

Query block: Say whether CC(C)CN1CCC(COc2ccc3ncn(-c4cc(O[C@H](C)c5ccccc5C(F)(F)F)c(C(N)=O)s4)c3c2)CC1 shows Inhibition of 60% or more.
Result block: yes

Query block: Say whether O=C(/C=C/c1ccc(C(F)(F)F)cc1)NCCCCCN1CCCN(C(=O)Nc2ccc(Cl)c(Cl)c2)CC1 shows Inhibition of 60% or more.
Result block: no

Query block: Say whether Cc1ccc2nc(C)cc(N/N=C/c3ccc([N+](=O)[O-])cc3)c2c1 shows Inhibition of 60% or more.
Result block: no

Query block: Say whether CSCCCN1CCC(O)(c2ccc3oc(C(=O)Nc4ccc5sc(C)nc5c4)cc3c2)CC1 shows Inhibition of 60% or more.
Result block: yes

Query block: Say whether Cc1noc(C)c1-c1cccc(CNCc2ccc(-c3cccc(-c4nc5cc(F)ccc5[nH]4)c3)cc2)c1.O=C(O)C(F)(F)F shows Inhibition of 60% or more.
Result block: yes

Query block: Say whether CCOC(=O)c1c(C)noc1Nc1cccc(C)c1C shows Inhibition of 60% or more.
Result block: no

Query block: Say whether CC1CCCC(NC(=O)CCOc2ccccc2)C1 (stereo not drawn) shows Inhibition of 60% or more.
Result block: no

Query block: Say whether CCc1cn2c3c(cc(C(=O)N[C@@H](Cc4cc(F)cc(F)c4)[C@H](O)CNC4CCCCC4)cc13)N(C)S(=O)(=O)CC2.O=CO shows Inhibition of 60% or more.
Result block: yes

Query block: Say whether O=C(Nc1cccc(-c2cccc(-c3nc4ccccc4[nH]3)c2)c1)c1ccoc1 shows Inhibition of 60% or more.
Result block: no

Query block: Say whether Cc1cc(NC(=O)c2cccs2)ccc1OC1CCN(Cc2ccccc2)C1.O=C(O)C(F)(F)F (stereo not drawn) shows Inhibition of 60% or more.
Result block: yes

Taken from ChEMBL document CHEMBL1157539.
